Reference for the values: patent US20080020978A1

# Target desc: CGRP1 receptor (CRLR/RAMP1 complex) of human neuroblastoma SK-N-MC cells (human, UniProt Q16602 23-461; O60894 27-148)
# Sequence (Q16602 23-461, chain 1 of 2): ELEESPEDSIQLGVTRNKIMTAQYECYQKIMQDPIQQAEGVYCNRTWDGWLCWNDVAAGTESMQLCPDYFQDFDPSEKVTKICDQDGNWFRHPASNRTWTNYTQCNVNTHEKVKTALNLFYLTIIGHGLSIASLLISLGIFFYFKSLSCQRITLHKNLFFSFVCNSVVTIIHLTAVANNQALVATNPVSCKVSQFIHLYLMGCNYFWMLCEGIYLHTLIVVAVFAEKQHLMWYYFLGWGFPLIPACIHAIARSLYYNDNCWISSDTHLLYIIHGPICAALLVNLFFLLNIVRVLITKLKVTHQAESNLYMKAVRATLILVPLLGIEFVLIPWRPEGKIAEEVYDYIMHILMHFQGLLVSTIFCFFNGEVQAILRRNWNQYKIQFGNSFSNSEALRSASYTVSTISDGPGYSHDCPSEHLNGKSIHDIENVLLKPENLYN
# Sequence (O60894 27-148, chain 2 of 2): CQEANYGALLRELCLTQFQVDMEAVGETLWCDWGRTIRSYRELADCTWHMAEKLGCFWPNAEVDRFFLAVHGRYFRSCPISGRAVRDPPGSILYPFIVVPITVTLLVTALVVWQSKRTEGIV
# Method description: cell-based or functional assay
Ends that are not written are not given here.
Catalogue of IC50 readings, one per entry.

Binder	IC50
CGGGGGGGVTHRLAGLLSRSGGVVKNNFVPTDVGPFAF-NH2 [SEQ ID NO 3]	720 pM
Ac-WVTHRLAGLLSRSGGVVCNNFVPTDVGPFAF-NH2 (not fully specified (residue 18); printed as Ac-WVTHRLAGLLSRSGGVVCNNFVPTDVGPFAF-NH2) [SEQ ID NO 14]	2200 pM
Ac-WVTHRLAGLLSRSGGVKRNNFVPTDVGPFAF-NH2 [SEQ ID NO 11]	510 pM
Ac-WVTHRLAGLLSRSGGVVRKNFVPTDVGPFAF-NH2 (not fully specified (residue 19); printed as Ac-WVTHRLAGLLSRSGGVVRKNFVPTDVGPFAF-NH2) [SEQ ID NO 15]	420 pM
Ac-WVTHRLAGLLSRSGGVCRNNFVPTDVGPFAF-NH2 (not fully specified (residue 17); printed as Ac-WVTHRLAGLLSRSGGVCRNNFVPTDVGPFAF-NH2) [SEQ ID NO 18]	160 pM
CGGGGGGGVTHRLAGLLSRSGGVVKNNFVPTDVGPFAF-NH2 (not fully specified (residue 1); printed as CGGGGGGGVTHRLAGLLSRSGGVVKNNFVPTDVGPFAF-NH2) [SEQ ID NO 20]	138000 pM
